experiment: amyloid nucleation score (Sup35N fusion, yeast selection) (log enrichment); library NNK1; higher = more nucleation; inactive = no reads after selection;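 also: zero at mode of non-aggregating sequences after 7 days selection at 30°C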
We use 0.3 as the dividing line for amyloid nucleation score: on or above the line is 1, below is -1.

Solved cases below.
[
  {
    "substance": "YDQNWMRTIDRVNH",
    "class": -1
  },
  {
    "substance": "VSMHWSISRCIC",
    "class": 1
  }
]

# input Threshold query (amyloid nucleation score >= 0.3) on VGNMYYGSTSHNDT
# output -1

# input Thanks! And PHDSFLMHTDSGEHWGPVYR ?
# output -1

# input Queued: RSVPCPYYGLL
# output -1

# input Same lookup for MDNCIISRYMFHMLVTSKVY , please.
# output 1

* * *

assay: amyloid nucleation score (Sup35N fusion, yeast selection) (log enrichment); library NNK3; higher = more nucleation; inactive = no reads after selection
assayMetric: amyloid nucleation score

Worked cases, amyloid nucleation score given:
[
  {
    "sequenceEntry": "ASRAESVVGSFFCFFL",
    "amyloid nucleation score": 2.17
  },
  {
    "sequenceEntry": "LVRHARNKDNLFGN",
    "amyloid nucleation score": "inactive"
  },
  {
    "sequenceEntry": "VTMFFLFHMQLYFSSKILGF",
    "amyloid nucleation score": "inactive"
  },
  {
    "sequenceEntry": "YFFFLRICWMDSSLVFGLLS",
    "amyloid nucleation score": "inactive"
  },
  {
    "sequenceEntry": "VFRLKSVLSGLLQAHRLAGI",
    "amyloid nucleation score": "inactive"
  },
  {
    "sequenceEntry": "STITYHLDIEVRKCWVFYMY",
    "amyloid nucleation score": "inactive"
  }
]

Respectfully, I request amyloid nucleation score for each entry included below.
1. VGRPTASGLRNCMWSLSWCV
2. EDLMLVQF
3. SLSIMYIFTWDGPYIECTFY
4. LCHICDAVTSYLLP
5. LWVSLFVSDVTRLFCLGFVT
6. CHMWSEHSTTLMYYSKKY
7. WYWSSNPSGTDVGIDGVRIS

# output
1: inactive; 2: inactive; 3: 2.71; 4: -0.406; 5: inactive; 6: 0.199; 7: inactive

Batch lookup, amyloid nucleation score per entry.
1. HSSIVWKRYSIYFVKNGGTF
2. VGWIHYCQGTYKRMFGITGR
3. ILVHTHLSTLSIRHTASPMT
4. DIVILSTSASSTS
5. KRGNSANPS

# output
1. inactive
2. inactive
3. inactive
4. inactive
5. inactive

// batch mode: one amyloid nucleation score value per listed entry
1. LMNKKCNPGDKTLQIYIRRG
2. CFSTPCLCQSNELANIGSPT

# output
1: inactive; 2: inactive

Batch request: amyloid nucleation score per item, same order as input.
1. DWRAVLLGITSFA
2. NNFMYPELAPSARRCAWYCG
3. AEYQPFRQRHVL

# output
1. inactive
2. inactive
3. inactive

// each listed sequence needs a value for amyloid nucleation score
1. ELISRMSFRSLCLAFFISVC
2. YYYGKWYLYEKHSVVFRGCR
3. NRTDHTLNCVEIFAWIWFNL
4. SSMGVVSVRAN
5. HILFLYRDLVILVLCSSHPC

# output
1: inactive; 2: inactive; 3: inactive; 4: inactive; 5: inactive
